target under test: T1, human 5T4ECDHis (mature protein of SEQ ID NO: 99) (human, UniProt Q13641 32-355)
T1 construct: ECD of human 5T4 (aa 1-355 of Uniprot Q13641) with C-terminal His tag; residues 1-31 are the signal peptide; also called ECD of human 5T4 with a C-terminal His tag
T1 sequence: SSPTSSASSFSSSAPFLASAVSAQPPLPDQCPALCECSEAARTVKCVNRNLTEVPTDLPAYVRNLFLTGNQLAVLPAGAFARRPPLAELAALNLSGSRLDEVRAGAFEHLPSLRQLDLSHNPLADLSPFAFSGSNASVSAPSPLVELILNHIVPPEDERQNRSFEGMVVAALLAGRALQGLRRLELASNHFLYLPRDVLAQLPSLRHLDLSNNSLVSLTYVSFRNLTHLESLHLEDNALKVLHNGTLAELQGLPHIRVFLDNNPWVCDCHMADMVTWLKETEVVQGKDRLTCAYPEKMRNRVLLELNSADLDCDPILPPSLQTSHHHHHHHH
assay explanation: BLI cross-block; competitor (immobilised): IgG1-5T4-226-FEAR

binder	corrected association response
IgG1-5T4-207-FEAR (antibody, V domains shown, Monospecific, bivalent IgG1 FEAR) VH: QVQLQQWGAGLLKPSETLSLTCAVYGGSFSGYYWTWIRQPPGKGLEWIGEIDHSESTNYNPSLKSRVTISVDTSKNQFSLKLSSVTAADTAVYYCAGWFGELYHYYYGMDVWGQGTTVTVSS VL: EIVLTQSPATLSLSPGERATLSCRASQSVSSYLAWYQQKPGQAPRLLIYDASNRATGIPARFSGSGSGTDFTLTISSLEPEDFAVYYCQQRSNWPLTFGGGTKVEIKR	-0.02 nm
IgG1-5T4-H8-FEAR (antibody, V domains shown, Based on 5T4 antibody H8 from Wyeth (WO 2007/106744); IgG1 with L234F, L235E, D265A, K409R (FEAR); also called IgG1-5T4-HS-FEAR; IgG1-5T4-H8-FEAR-FITC) VH: EVQLQQSGPDLVKPGASVKISCKASGYSFTGYYMHWVKQSHGKSLEWIGRINPNNGVTLYNQKFKDKAILTVDKSSTTAYMELRSLTSEDSAVYYCARSTMITNYVMDYWGQVTSVTVSS VL: SIVMTQTPTFLLVSAGDRVTITCKASQSVSNDVAWYQQKPGQSPTLLISYTSSRYAGVPDRFIGSGYGTDFTFTISTLQAEDLAVYFCQQDYNSPPTFGGGTKLEIK	-0.01 nm
IgG1-5T4-106-FEAR (antibody, V domains shown, Monospecific, bivalent human IgG1 kappa with L234F, L235E, D265A, K409R (FEAR)) VH: EVQLVQSGAEVKKPGESLKISCKGSGYRFTSYWIGWVRQMPGKGLEWMGIIYPGDSDARYSPSFQGQVTISADKSISTAYLQWSSLKASDTGMYYCARSVLFDYWGQGTLVTVSS VL: AIQLTQSPSSLSASVGDRVTITCRASQGISSALAWYQQKPGKAPKLLIYDVSNLESGVPSRFSGSGSGTDFTLTISSLQPEDFATYYCQQFNSYPHTFGQGTKLEIK	-0.02 nm
